Data origin: PubChem BioAssay AID1963969

# Test system: 817829-284-R-J1-PDC multi-cell spheroid viability;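 note: spheroids exposed to agents for seven days before readout; percent of vehicle DMSO control viability which is 100%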
# test.summary: Anticancer human tumor 817829-284-R-J1-PDC patient-derived colon adenocarcinoma cell line growth inhibition [PI3K]
# recorded.conditions: second compound 0.316 µM; first compound 0.316 µM; hits give low values
# Excerpt: Combinatorial screen of targeted agents with the PI3K inhibitors inavolisib, alpelisib, duvelisib, and copanlisib in multi-cell type tumor spheroids A high-throughput screen of multi-cell type tumor spheroids was designed to identify active combinations of targeted small molecules and PI3K pathway inhibitors. […] Compounds. […] If the clinical Cmax for an agent had not been determined, the highest concentration tested was 10 microM. […]
observed.property: viability, T/C (%)
One number for each entry, in %.

Field: example entries. Status: answers known.
- compound: "CC(C)NCC(C(=O)N1CCN(c2ncnc3c2C(C)CC3O)CC1)c1ccc(Cl)cc1 (stereo not given) + Cc1nc(NC(=O)N2CCCC2C(N)=O)sc1-c1ccnc(C(C)(C)C(F)(F)F)c1"
  observed.property: "viability, T/C"
  value.observed: 30.5
- compound: "CC(Cn1ccc(-c2ccc(C#N)c(Cl)c2)n1)NC(=O)c1cc(C(C)O)[nH]n1 (stereo not given) + COc1c(OCCCN2CCOCC2)ccc2c3n(c(=NC(=O)c4cnc(N)nc4)nc12)CCN3"
  observed.property: "viability, T/C"
  value.observed: 23.6
- compound: "CCCS(=O)(=O)Nc1ccc(F)c(C(=O)c2c[nH]c3ncc(-c4ccc(Cl)cc4)cc23)c1F + COc1c(OCCCN2CCOCC2)ccc2c3n(c(=NC(=O)c4cnc(N)nc4)nc12)CCN3"
  observed.property: "viability, T/C"
  value.observed: 21.3
- compound: "CC1(C)CCC(CN2CCN(c3ccc(C(=O)NS(=O)(=O)c4ccc(NCC5CCOCC5)c([N+](=O)[O-])c4)c(Oc4cnc5[nH]ccc5c4)c3)CC2)=C(c2ccc(Cl)cc2)C1 + COc1c(OCCCN2CCOCC2)ccc2c3n(c(=NC(=O)c4cnc(N)nc4)nc12)CCN3"
  observed.property: "viability, T/C"
  value.observed: 23.2
- compound: "CCCS(=O)(=O)Nc1ccc(F)c(C(=O)c2c[nH]c3ncc(-c4ccc(Cl)cc4)cc23)c1F + CC(Nc1ncnc2nc[nH]c12)c1cc2cccc(Cl)c2c(=O)n1-c1ccccc1"
  observed.property: "viability, T/C"
  value.observed: 101

Hi, could you look up viability, T/C for each item in my list?
1. CNC(=O)c1ccc(N2C(=S)N(c3ccc(C#N)c(C(F)(F)F)c3)C(=O)C2(C)C)cc1F + COc1c(OCCCN2CCOCC2)ccc2c3n(c(=NC(=O)c4cnc(N)nc4)nc12)CCN3
2. CCN1CCN(Cc2ccc(Nc3ncc(F)c(-c4cc(F)c5nc(C)n(C(C)C)c5c4)n3)nc2)CC1 + COc1c(OCCCN2CCOCC2)ccc2c3n(c(=NC(=O)c4cnc(N)nc4)nc12)CCN3
3. CCN1CCN(Cc2ccc(Nc3ncc(F)c(-c4cc(F)c5nc(C)n(C(C)C)c5c4)n3)nc2)CC1 + Cc1nc(NC(=O)N2CCCC2C(N)=O)sc1-c1ccnc(C(C)(C)C(F)(F)F)c1

1: 23.2; 2: 34.1; 3: 48.2

Provide reported viability, T/C for each item, in the same order as listed.
1. Cn1nccc1Nc1nccc(-c2ccn(C(CO)c3ccc(Cl)c(F)c3)c(=O)c2)n1 (stereo not given) + CC(Nc1ccc2c(c1)OCCn1cc(N3C(=O)OCC3C(F)F)nc1-2)C(N)=O
2. C#Cc1c(F)ccc2cc(O)cc(-c3ncc4c(N5CC6CCC(C5)N6)nc(OCC56CCCN5CC(F)C6)nc4c3F)c12 (stereo not given) + CC(Nc1ccc2c(c1)OCCn1cc(N3C(=O)OCC3C(F)F)nc1-2)C(N)=O

1. 80.5
2. 48.6
